// reported MIC per item
system: S. aureus 209P JC-1; assay: Antimicrobial activities (MIC, agar dilution); assay type: cell-based; conditions: Staphylococcus aureus, Sensitivity Disk agar-N+5% Horse blood, 10^6 CFU/ml, read-out: minimum inhibiting concentrations (MIC)
recorded.endpoint: MIC

C[C@@H](O)[C@H]1C(=O)N2C(C(=O)O)=C(SCCN=CN)C[C@H]12 [Compound A, Imipenem, reference compound] : < 0.025 µg/mL
C[C@@H](O)[C@H]1C(=O)N2C(C(=O)[O-])=C(c3cn4cnc(SCCN)c4s3)[C@H](C)[C@H]12.[Na+] : < 0.025 µg/mL
C[C@@H](O)[C@H]1C(=O)N2C(C(=O)[O-])=C(c3cn4cnc(SCCF)c4s3)[C@H](C)[C@H]12.[Na+] : < 0.025 µg/mL
C[C@@H](O)[C@H]1C(=O)N2C(C(=O)[O-])=C(c3cn4cnc(SCCNC(=N)N)c4s3)[C@H](C)[C@H]12.[Na+] : < 0.025 µg/mL
C[C@@H](O)[C@H]1C(=O)N2C(C(=O)[O-])=C(c3cn4cncc4s3)[C@H](C)[C@H]12.[Na+] [Compound B, reference compound] : < 0.025 µg/mL
